- EXPERIMENT_SUMMARY: PSAC antagonists in infected red cells, primary screen, cell-based, P. falciparum Indochina, OD700, 18 h (AID 1157)
- RECORDED_CONDITIONS: P. falciparum Indochina infected erythrocytes, osmotic lysis OD700, 18 h; higher = more signal, called active from +8 up or from −8 down
PROPERTY_MEASURED: z-score

> print(dat)
                                   compound  reading
1  O=C1[C@H]2[C@H]3[C@H](O)[C@H](O)CC(=NO[C@@H]4O[C@H](CO)[C@@H](O)[C@H](O)[C@H]4O)[C@H]3CC[C@H]2C(=O)N1c1ccc(F)cc1F    0.159
2  CCN1C(=O)[C@H]2[C@H]3[C@H](O)[C@H](O)CC(=NOC(C)CN4CCCc5nc(C)c(C)cc54)[C@@H]3CC[C@H]2C1=O (some centres not stated)    0.588
3  COc1cccc([C@H]2Oc3ccc(OC)cc3C(=NOCC[C@@H]3C=C[C@H](OC(C)=O)[C@@H](COC(C)=O)O3)[C@@H]2O)c1    0.416
4  C[C@@H]1CC[C@H]2C(=O)OC(Cc3ccccc3)CN2[C@H]1c1ccc(Br)cc1 (some centres not stated)     0.54
5  C=CC[C@@H]1C=C[C@H](Oc2ccc(C)cc2)[C@@H](COC(=O)NCc2cccc3ccccc23)O1    0.346
6  CC(C)CON=C1C[C@@H](O)[C@@H](O)[C@@H]2[C@@H]3C(=O)N(C(C)(C)C)C(=O)[C@@H]3CC[C@@H]12    -2.29
7  O=C1C[C@@H](O)[C@@H](O)[C@@H]2[C@@H]3C(=O)N(Cc4ccccc4)C(=O)[C@@H]3CC[C@H]12    0.526

* * *

- EXPERIMENT_SUMMARY: A549 lung cancer cell viability effects, profiling panel, resazurin fluorescence, 24 h, PK04 Diversity Set (AID 1171); note: test concentration not given here
- RECORDED_CONDITIONS: higher = more signal, called active from +8 up or from −8 down
# if value of z-score reaches -0.03, tag Yes; if it stays below, tag No

> print(dat)
                                   compound  class
1  CCN1C(=O)[C@H]2[C@H]3[C@H](O)[C@H](O)CC(=NOCC[C@@H]4C=C[C@H](OC(C)=O)[C@@H](COC(C)=O)O4)[C@@H]3CC[C@H]2C1=O     No
2  COC(=O)[C@H](C)NC(=O)CCC1CC(OC(=O)NCCc2ccc(F)cc2)CC2(CCCC(COC(=O)NCC3CCCCC3)O2)O1 (some centres not stated)    Yes
3  COc1ccc(COC(=O)NN=C2C[C@@H](O)[C@@H](O)[C@@H]3[C@@H]4C(=O)N(Cc5ccccc5)C(=O)[C@@H]4CC[C@@H]23)cc1    Yes
4  CO[C@H]1COC(=O)[C@H](C)COC(=O)[C@@H](OCc2ccccc2)C=C[C@@H]1C    Yes
5  CC(C)=CCCC(C)=CCON=C1C[C@@H](O)[C@@H](O)[C@@H]2[C@@H]3C(=O)N([C@@H](C)c4ccccc4)C(=O)[C@@H]3CC[C@@H]12     No
6  CCN1C(=O)[C@H]2[C@H]3[C@H](O)[C@H](O)CC(=NO[C@H](C)c4cn([C@H](CO)Cc5ccccc5)nn4)[C@@H]3CC[C@H]2C1=O     No
7  CCN1C(=O)[C@H]2[C@H]3[C@H](O)[C@H](O)CC(=NOCC(C)C)[C@H]3CC[C@H]2C1=O     No

* * *

- EXPERIMENTAL_TARGET: Calmodulin-1 (Homo sapiens) (UniProt P0DP23)
- EXPERIMENT_SUMMARY: calcium-bound CALM1 binders on microarrays, profiling panel, artefact control for SMM control-protein annotation, biochemical, small-molecule microarray, Cy5-labelled CALM1, plus calcium (AID 1112);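 note: score merges spot fluorescence with signal to noise from triplicate slides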
- RECORDED_CONDITIONS: Cy5-CALM1 binding fluorescence, higher = more signal
Each entry falls into one class according to its composite z-score; the ranges are bottom range: < -0.5; center range: ≥ -0.5 and < -0.3; top range: ≥ -0.3

COMPOUND	CLASS
C[C@H]1CC[C@H]2C(=O)O[C@H](CO)CN2[C@@H]1c1ccc(Br)cc1	center range
CCCNC(=O)OC[C@H]1O[C@H](CCON=C2c3cc(OC)ccc3O[C@H](c3cccc(OC)c3)[C@H]2O)C=C[C@@H]1Oc1ccc(OC)cc1	top range
CC(C)[C@H](NC(=O)OC(C)(C)C)[C@@H](O)CC(=O)C(C)(C)C	bottom range
CCC1=NOC(CCC2CC(OC(=O)NCc3cccc4c3OCO4)CC3(CCCC(COC(=O)NCCc4ccc(Cl)cc4)O3)O2)C1 (stereo unspecified)	bottom range
C[C@H]1CC[C@H]2C(=O)OC(COc3ccc(C(C)(C)C)cc3)CN2[C@@H]1c1ccc(Br)cc1 (stereo partly specified)	top range
CC(C)(C)N1C(=O)[C@H]2[C@@H]3C(=CC[C@H]2C1=O)C(=O)[C@H]1O[C@H]1[C@H]3O	bottom range
O=C1[C@H]2CCn3c(=O)n(Cc4cc5c(cc4Cl)OCO5)c(=O)n3[C@H]2[C@H](O)[C@@H]2O[C@H]12	bottom range
CC(C)(C)N1C(=O)[C@H]2[C@H]3[C@H](O)[C@H](O)CC(=NNC(=O)OCc4ccccc4)[C@H]3CC[C@H]2C1=O	center range
CCN1C(=O)[C@H]2[C@H]3[C@H](O)[C@H](O)CC(=NNC(=O)OCc4ccccc4)[C@@H]3CC[C@H]2C1=O	top range
COc1ccc(O[C@H]2C=C[C@@H](C#Cc3ccccc3)O[C@@H]2CO)cc1	top range
COCCNC(=O)OCC1CCCC2(CC(OC(=O)NCc3cccc4ccccc34)CC(CCC(=O)N[C@@H](C)C(=O)OC)O2)O1 (stereo partly specified)	bottom range
CCN(CC)CC(O)CN1CCCCc2nc(C)c(C)cc21 (stereo unspecified)	top range
O=C(NN=C1C[C@@H](O)[C@@H](O)[C@@H]2[C@@H]3C(=O)N(Cc4ccccc4)C(=O)[C@@H]3CC[C@H]12)OCc1ccccc1	center range
CCOC(=O)[C@H](CC(C)C)NC(=O)CCC1CC(OC(=O)NCc2ccc3c(c2)OCO3)CC2(CCCC(COC(=O)NCCC(C)C)O2)O1 (stereo partly specified)	center range
CC(C)[C@@H](OCc1ccccc1)[C@H](C)C=NO[C@H](C)c1cn([C@@H]2COC[C@H]2O)nn1	center range
C=C(C)C(=O)OC[C@H]1CN2[C@@H](CC[C@@H](C)[C@@H]2c2ccc(Br)cc2)C(=O)O1	center range
C[C@H]1CC[C@H]2C(=O)N[C@H](Cc3ccccc3)C(=O)N2[C@@H]1c1ccccc1	top range
CCOC(=O)CCN1C(=O)[C@H]2[C@H]3[C@H](O)[C@H](O)CC(=O)[C@@H]3CC[C@H]2C1=O	top range
COC(=O)[C@H](C)NC(=O)CCC1CC(OC(=O)NCc2cccc3ccccc23)CC2(CCCC(COC(=O)NCCCN3CCCC3=O)O2)O1 (stereo partly specified)	top range
COc1cccc([C@H](O)Cn2cc(-c3ccc(CON=C(C)C)cc3)nn2)c1	bottom range
CO[C@@H]1COC(=O)CC=C[C@H](C)[C@H](OC)COC(=O)[C@@H]2CCCN2C(=O)CC=C[C@H]1C	bottom range
CCCNC(=O)OC[C@H]1O[C@H](CCON=C[C@@H](NS(=O)(=O)c2ccc(C)cc2)[C@H](C)C=CCC(=O)OC)C=C[C@@H]1Oc1ccc(OC)cc1	bottom range
CC(C)=CCCC(C)=CCON=C1[C@H]2CCn3c(=O)n(-c4ccccc4)c(=O)n3[C@H]2[C@H](O)[C@@H]2O[C@H]12	bottom range
CCOC(=O)[C@H](Cc1ccccc1)NC(=O)CCC1CC(OC(=O)NCCc2ccc(F)cc2)CC2(CCCC(COC(=O)NCc3cccc(C(F)(F)F)c3)O2)O1 (stereo partly specified)	top range
C#CCCCON=C1C[C@@H](O)[C@@H](O)[C@@H]2[C@@H]3C(=O)N([C@@H](C)c4ccccc4)C(=O)[C@@H]3CC[C@@H]12	top range
CC(CCN1CCCc2nc(C)c(C)cc21)=NO[C@H](C)c1cn([C@@H]2COC[C@H]2O)nn1	bottom range
CCN1C(=O)[C@H]2[C@H]3[C@H](O)[C@H](O)CC(=NNC(=O)OCc4ccccc4)[C@H]3CC[C@H]2C1=O	bottom range
C[C@@H]1CC[C@@H](C(=O)O)N[C@H]1c1cccc(N2CCOCC2)c1	top range
CO[C@@H]1C=CCC(=O)N[C@@H](C)C(=O)OC[C@@H](NS(=O)(=O)c2ccc(C)cc2)[C@H](C)C=CCC(=O)OC[C@H]1C	center range
CC(C)=NO[C@@H](C)c1cn([C@H](CO)Cc2ccccc2)nn1	center range
